Biological target: PAK4 (Homo sapiens, UniProt O96013)
Sequence (O96013 whole entry, the tested form may be a part): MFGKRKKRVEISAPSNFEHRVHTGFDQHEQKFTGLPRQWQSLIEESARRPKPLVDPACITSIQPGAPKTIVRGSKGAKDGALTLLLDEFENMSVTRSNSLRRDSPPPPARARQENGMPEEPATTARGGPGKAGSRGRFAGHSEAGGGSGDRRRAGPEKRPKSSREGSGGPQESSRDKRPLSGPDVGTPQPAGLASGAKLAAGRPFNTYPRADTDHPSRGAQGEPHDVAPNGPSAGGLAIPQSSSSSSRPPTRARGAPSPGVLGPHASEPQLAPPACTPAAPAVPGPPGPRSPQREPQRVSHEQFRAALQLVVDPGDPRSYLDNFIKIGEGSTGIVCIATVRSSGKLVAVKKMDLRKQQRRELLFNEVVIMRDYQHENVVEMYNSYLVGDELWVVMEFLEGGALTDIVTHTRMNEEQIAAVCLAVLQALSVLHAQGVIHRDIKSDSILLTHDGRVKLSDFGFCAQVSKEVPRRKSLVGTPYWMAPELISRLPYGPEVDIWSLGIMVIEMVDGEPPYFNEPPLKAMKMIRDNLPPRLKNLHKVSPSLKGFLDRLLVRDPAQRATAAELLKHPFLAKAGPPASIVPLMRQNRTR
Experiment: Inhibition of recombinant human GST-tagged PAK4 catalytic domain (295 to 591 residues) expressed in baculovirus expression system at 25 uM using FRET-labeled Ser/Thr 20 peptide as substrate measured after 1 hr by Z'-lyte assay relative to control
Details: probe FRET-labeled Ser/Thr 20 peptide
Measured parameter: inhibition at 1 h, 25 µM

1) CC(C)COc1cccc(Cl)c1-c1cc2cnc(N)nc2nc1N1C[C@@H]2[C@@H](N)[C@@H]2C1 ... 23%
2) Nc1ncc2cc(-c3c(Br)cccc3Br)c(N)nc2n1 ... 20%
3) Nc1ncc2cc(-c3c(Cl)cccc3-c3cccnc3)c(N3C[C@@H]4[C@@H](N)[C@@H]4C3)nc2n1 ... 25%

---

Biological target: MAPK1 (Homo sapiens, UniProt P28482)
Sequence (P28482 whole entry): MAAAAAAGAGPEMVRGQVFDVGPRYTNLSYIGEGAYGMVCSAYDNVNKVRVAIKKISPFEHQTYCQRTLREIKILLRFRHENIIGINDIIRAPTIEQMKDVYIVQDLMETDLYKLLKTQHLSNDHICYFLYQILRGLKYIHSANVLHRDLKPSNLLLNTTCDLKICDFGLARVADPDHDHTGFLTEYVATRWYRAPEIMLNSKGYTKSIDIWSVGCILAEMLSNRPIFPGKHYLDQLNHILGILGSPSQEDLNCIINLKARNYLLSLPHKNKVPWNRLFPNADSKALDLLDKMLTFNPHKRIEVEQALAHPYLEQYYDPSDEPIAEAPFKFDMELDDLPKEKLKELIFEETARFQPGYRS
Test: Inhibition of recombinant human full-length GST-tagged MAPK1 […] expressed in Escherichia coli at 25 uM using FRET-labeled Ser/Thr 03 peptide as substrate measured after 1 hr by Z'-lyte assay relative to control
Details: probe FRET-labeled Ser/Thr 03 peptide
Measured parameter: inhibition at 1 h, 25 µM (%)

1) CC(C)COc1cccc(Cl)c1-c1cc2cnc(N)nc2nc1N1C[C@@H]2[C@@H](N)[C@@H]2C1 ... 6
2) Nc1ncc2cc(-c3c(Br)cccc3Br)c(N)nc2n1 ... 26

---

Measured inhibition at 1 h, 25 µM accompanies every entry in the list below.
Target: FYN (Homo sapiens, UniProt P06241)
Sequence (P06241 whole entry, the tested form may be a part): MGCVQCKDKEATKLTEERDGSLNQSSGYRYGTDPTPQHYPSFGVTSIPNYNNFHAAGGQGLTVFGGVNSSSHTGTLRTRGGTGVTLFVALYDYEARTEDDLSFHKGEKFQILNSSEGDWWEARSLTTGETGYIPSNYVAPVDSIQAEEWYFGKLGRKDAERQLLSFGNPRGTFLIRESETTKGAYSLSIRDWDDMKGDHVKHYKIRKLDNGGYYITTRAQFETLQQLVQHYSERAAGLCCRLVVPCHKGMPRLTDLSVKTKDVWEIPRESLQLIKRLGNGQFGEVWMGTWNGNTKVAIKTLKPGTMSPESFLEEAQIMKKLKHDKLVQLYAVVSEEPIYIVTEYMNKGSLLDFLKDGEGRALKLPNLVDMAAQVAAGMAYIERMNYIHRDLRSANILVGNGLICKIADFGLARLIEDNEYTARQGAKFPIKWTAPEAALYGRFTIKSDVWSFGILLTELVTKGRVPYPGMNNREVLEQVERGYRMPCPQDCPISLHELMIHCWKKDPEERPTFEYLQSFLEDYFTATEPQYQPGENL
Assay: Inhibition of full-length recombinant human C-terminal His-tagged FYN cytoplasmic domain expressed in baculovirus expression system at 25 uM using FRET-labeled tyr 02 peptide as substrate measured after 1 hr by Z'-lyte assay relative to control
Settings: probe FRET-labeled tyr 02 peptide
Measured parameter: inhibition at 1 h, 25 µM (%)

1) Nc1ncc2cc(-c3c(Cl)cccc3-c3cccnc3)c(N3C[C@@H]4[C@@H](N)[C@@H]4C3)nc2n1 ... 12
2) CC(C)COc1cccc(Cl)c1-c1cc2cnc(N)nc2nc1N1C[C@@H]2[C@@H](N)[C@@H]2C1 ... 12

---

Molecular target: PDK1 (Homo sapiens, UniProt Q15118)
Sequence (Q15118 whole entry): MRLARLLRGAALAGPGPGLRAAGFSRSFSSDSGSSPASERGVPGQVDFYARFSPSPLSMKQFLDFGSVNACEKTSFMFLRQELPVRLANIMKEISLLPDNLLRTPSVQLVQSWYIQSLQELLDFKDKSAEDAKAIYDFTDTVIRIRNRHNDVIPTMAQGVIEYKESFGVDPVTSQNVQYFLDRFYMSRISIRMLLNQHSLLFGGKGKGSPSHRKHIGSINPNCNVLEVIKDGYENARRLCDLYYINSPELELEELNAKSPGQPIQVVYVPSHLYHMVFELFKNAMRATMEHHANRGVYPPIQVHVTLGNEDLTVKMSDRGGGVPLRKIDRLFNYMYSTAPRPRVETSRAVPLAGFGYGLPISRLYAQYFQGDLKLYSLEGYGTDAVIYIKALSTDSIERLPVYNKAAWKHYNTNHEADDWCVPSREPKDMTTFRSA
Assay: Inhibition of recombinant human full-length His-tagged PDK1 expressed in baculovirus expression system at 25 uM using FRET-labeled Ser/Thr 07 peptide as substrate measured after 1 hr by Z'-lyte assay relative to control
Conditions: probe FRET-labeled Ser/Thr 07 peptide
Measured inhibition at 1 h, 25 µM accompanies every entry in the list below.
Measured parameter: inhibition at 1 h, 25 µM (%)

1) Nc1ncc2cc(-c3c(Cl)cccc3-c3cccnc3)c(N3C[C@@H]4[C@@H](N)[C@@H]4C3)nc2n1 ... 0
2) CC(C)COc1cccc(Cl)c1-c1cc2cnc(N)nc2nc1N1C[C@@H]2[C@@H](N)[C@@H]2C1 ... 0
3) Nc1ncc2cc(-c3c(Br)cccc3Br)c(N)nc2n1 ... 3

---

Target: SGK (Sgk1) (Homo sapiens)
Test: Inhibition of recombinant human GST-tagged SGK catalytic domain (60 to 431 residues) expressed in baculovirus expression system at 25 uM using FRET-labeled Ser/Thr 06 peptide as substrate measured after 1 hr by Z'-lyte assay relative to control
Conditions: probe FRET-labeled Ser/Thr 06 peptide
Measured parameter: inhibition at 1 h, 25 µM (%)

1. Nc1ncc2cc(-c3c(Br)cccc3Br)c(N)nc2n1 ... 7

---

Measured inhibition at 1 h, 25 µM accompanies every entry in the list below.
Target: AKT1 (Homo sapiens)
Sequence (P31749 whole entry): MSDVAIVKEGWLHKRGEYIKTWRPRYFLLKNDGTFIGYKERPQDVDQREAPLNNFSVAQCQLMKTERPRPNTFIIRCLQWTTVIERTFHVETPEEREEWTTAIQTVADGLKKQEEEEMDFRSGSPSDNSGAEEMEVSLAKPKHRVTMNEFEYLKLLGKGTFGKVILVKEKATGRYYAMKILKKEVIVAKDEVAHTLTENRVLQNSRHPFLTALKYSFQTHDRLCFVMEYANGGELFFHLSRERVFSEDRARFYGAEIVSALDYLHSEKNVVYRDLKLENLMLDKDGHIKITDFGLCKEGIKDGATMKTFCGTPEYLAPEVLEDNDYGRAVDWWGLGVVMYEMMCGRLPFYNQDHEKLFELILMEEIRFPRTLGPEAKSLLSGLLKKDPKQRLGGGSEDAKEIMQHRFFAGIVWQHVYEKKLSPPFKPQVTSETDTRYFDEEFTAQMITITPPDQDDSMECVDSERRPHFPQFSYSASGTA
Assay: Inhibition of recombinant human full-length His-tagged AKT1 expressed in baculovirus expression system at 25 uM using FRET-labeled Ser/Thr 05 peptide as substrate measured after 1 hr by Z'-lyte assay relative to control
Conditions: probe FRET-labeled Ser/Thr 05 peptide
Measured parameter: inhibition at 1 h, 25 µM (%)

1) Nc1ncc2cc(-c3c(Br)cccc3Br)c(N)nc2n1 ... 4
2) CC(C)COc1cccc(Cl)c1-c1cc2cnc(N)nc2nc1N1C[C@@H]2[C@@H](N)[C@@H]2C1 ... 7
3) Nc1ncc2cc(-c3c(Cl)cccc3-c3cccnc3)c(N3C[C@@H]4[C@@H](N)[C@@H]4C3)nc2n1 ... 6

---

Biological target: UniProtKB O14920
Sequence (O14920 whole entry): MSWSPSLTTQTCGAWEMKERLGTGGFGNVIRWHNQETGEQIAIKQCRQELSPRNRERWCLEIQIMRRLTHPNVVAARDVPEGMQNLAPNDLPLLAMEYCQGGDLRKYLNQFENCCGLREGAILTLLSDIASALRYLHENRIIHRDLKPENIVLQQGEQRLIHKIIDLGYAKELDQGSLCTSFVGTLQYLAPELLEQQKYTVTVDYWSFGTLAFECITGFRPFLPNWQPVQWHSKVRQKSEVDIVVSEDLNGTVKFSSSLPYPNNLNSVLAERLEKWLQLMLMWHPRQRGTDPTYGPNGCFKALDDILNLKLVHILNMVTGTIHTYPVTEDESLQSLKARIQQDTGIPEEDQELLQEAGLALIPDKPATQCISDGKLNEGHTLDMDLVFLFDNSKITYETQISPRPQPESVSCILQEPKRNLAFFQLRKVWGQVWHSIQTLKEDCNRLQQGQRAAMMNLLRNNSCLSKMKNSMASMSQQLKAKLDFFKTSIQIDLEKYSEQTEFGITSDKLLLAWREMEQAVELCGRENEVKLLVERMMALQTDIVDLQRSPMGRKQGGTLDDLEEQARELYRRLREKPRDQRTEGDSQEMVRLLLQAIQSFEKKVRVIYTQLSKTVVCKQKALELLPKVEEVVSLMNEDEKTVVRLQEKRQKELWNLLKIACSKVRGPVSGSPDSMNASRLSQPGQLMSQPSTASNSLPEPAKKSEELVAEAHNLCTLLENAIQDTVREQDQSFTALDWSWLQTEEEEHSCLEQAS
Experiment: in vitro
Details: probe FRET-labeled Ser/Thr 05 peptide
Measured parameter: inhibition at 1 h, 25 µM (%)

1) Nc1ncc2cc(-c3c(Cl)cccc3-c3cccnc3)c(N3C[C@@H]4[C@@H](N)[C@@H]4C3)nc2n1 ... 5

---

Measured inhibition at 1 h, 25 µM accompanies every entry in the list below.
Target: CHEK2 (Homo sapiens)
Sequence (O96017 whole entry): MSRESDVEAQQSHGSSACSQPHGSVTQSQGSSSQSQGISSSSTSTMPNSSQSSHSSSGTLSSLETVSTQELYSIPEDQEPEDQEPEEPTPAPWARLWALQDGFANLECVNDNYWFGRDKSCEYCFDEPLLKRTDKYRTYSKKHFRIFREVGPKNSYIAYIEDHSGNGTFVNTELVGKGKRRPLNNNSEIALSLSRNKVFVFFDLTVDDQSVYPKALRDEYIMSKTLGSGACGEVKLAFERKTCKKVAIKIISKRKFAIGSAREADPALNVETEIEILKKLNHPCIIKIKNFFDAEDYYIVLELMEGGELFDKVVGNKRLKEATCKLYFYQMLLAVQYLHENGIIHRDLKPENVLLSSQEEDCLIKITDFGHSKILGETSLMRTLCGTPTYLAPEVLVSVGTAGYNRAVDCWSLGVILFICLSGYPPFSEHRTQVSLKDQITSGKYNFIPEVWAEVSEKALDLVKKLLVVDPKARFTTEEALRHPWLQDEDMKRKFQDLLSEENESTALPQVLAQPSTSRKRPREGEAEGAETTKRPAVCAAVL
Assay: Inhibition of recombinant human full-length His-tagged CHEK2 expressed in baculovirus expression system at 25 uM using FRET-labeled Ser/Thr 07 peptide as substrate measured after 1 hr by Z'-lyte assay relative to control
Conditions: probe FRET-labeled Ser/Thr 07 peptide
Measured parameter: inhibition at 1 h, 25 µM (%)

1) Nc1ncc2cc(-c3c(Cl)cccc3-c3cccnc3)c(N3C[C@@H]4[C@@H](N)[C@@H]4C3)nc2n1 ... 20
2) Nc1ncc2cc(-c3c(Br)cccc3Br)c(N)nc2n1 ... 13
3) CC(C)COc1cccc(Cl)c1-c1cc2cnc(N)nc2nc1N1C[C@@H]2[C@@H](N)[C@@H]2C1 ... 67

---

Biological target: UniProt:O14757
Sequence (O14757 whole entry): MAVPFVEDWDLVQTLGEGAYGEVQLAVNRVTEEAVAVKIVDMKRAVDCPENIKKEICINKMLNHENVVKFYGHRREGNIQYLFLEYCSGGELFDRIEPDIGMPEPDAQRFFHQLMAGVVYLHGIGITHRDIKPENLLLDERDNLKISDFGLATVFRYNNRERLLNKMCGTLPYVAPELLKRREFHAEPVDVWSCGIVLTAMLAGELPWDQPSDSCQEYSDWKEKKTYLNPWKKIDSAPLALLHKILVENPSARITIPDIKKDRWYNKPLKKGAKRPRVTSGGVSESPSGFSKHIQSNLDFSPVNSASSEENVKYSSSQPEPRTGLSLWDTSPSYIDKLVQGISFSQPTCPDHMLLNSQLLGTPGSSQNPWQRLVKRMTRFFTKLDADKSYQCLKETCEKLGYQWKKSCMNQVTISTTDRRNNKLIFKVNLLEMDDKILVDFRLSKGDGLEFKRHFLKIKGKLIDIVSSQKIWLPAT
Assay: Inhibition of recombinant human full-length His-tagged CHEK1 expressed in baculovirus expression system at 25 uM using FRET-labeled Ser/Thr 19 peptide as substrate measured after 1 hr by Z'-lyte assay relative to control
Details: probe FRET-labeled Ser/Thr 19 peptide
Measured inhibition at 1 h, 25 µM accompanies every entry in the list below.
Measured parameter: inhibition at 1 h, 25 µM (%)

1) Nc1ncc2cc(-c3c(Cl)cccc3-c3cccnc3)c(N3C[C@@H]4[C@@H](N)[C@@H]4C3)nc2n1 ... 28
2) Nc1ncc2cc(-c3c(Br)cccc3Br)c(N)nc2n1 ... -1
3) CC(C)COc1cccc(Cl)c1-c1cc2cnc(N)nc2nc1N1C[C@@H]2[C@@H](N)[C@@H]2C1 ... 42

---

Target: Biotin carboxylase (Pseudomonas aeruginosa (strain ATCC 15692 / DSM 22644 / CIP 104116 / JCM14847 / LMG 12228 / 1C / PRS 101 / PAO1), UniProt P37798)
Test: Inhibition of recombinant N-terminal His-tagged Pseudomonas aeruginosa PAO1 biotin carboxylase expressed in Escherichia coli Rosetta(DE3) pLysS cells using biotin as substrate by spectroscopic analysis
Measured IC50 accompanies every entry in the list below.
Measured parameter: IC50 (nM)

1. Nc1ncc2cc(-c3c(Cl)cccc3Cl)c(N3C[C@@H]4[C@@H](N)[C@@H]4C3)nc2n1 ... 33
2. NCC1CCN(c2nc3nc(N)ncc3cc2-c2c(Cl)cccc2Cl)C1 (centres undefined) ... 64
3. NCC1(O)CCN(c2nc3nc(N)ncc3cc2-c2c(Cl)cccc2Cl)C1 (centres undefined) ... 83
4. NCC1(F)CCN(c2nc3nc(N)ncc3cc2-c2c(Cl)cccc2Cl)C1 (centres undefined) ... 440
5. COc1ccc(-c2cccc(Cl)c2-c2cc3cnc(N)nc3nc2N)cn1 ... 32
6. Nc1ncc2cc(-c3ccccc3-c3ccccc3)c(N)nc2n1 ... 79
7. Nc1ncc2cc(-c3ccccc3-c3cccnc3)c(N)nc2n1 ... 130
8. NCC1CCN(c2nc3nc(N)ncc3cc2-c2c(Cl)cccc2Cl)CC1 ... 320
9. Nc1ncc2cc(-c3c(Cl)cccc3Cl)c(N3CCC(CO)C3)nc2n1 (centres undefined) ... 140
10. Nc1ncc2cc(-c3c(Cl)cccc3Cl)c(N3CCC(N)(CO)C3)nc2n1 (centres undefined) ... 190
11. NC(=O)C1CCN(c2nc3nc(N)ncc3cc2-c2c(Cl)cccc2Cl)C1 (centres undefined) ... 170
12. Nc1ncc2cc(-c3c(Cl)cccc3-c3cccnc3)c(N)nc2n1 ... 36
13. CC(C)COc1cccc(Cl)c1-c1cc2cnc(N)nc2nc1N ... 93
14. Nc1ncc2cc(-c3c(Cl)cccc3Cl)c(N)nc2n1 ... 320

---

Measured inhibition at 1 h, 25 µM accompanies every entry in the list below.
Target: PRKCZ (Homo sapiens)
Sequence (Q05513 whole entry): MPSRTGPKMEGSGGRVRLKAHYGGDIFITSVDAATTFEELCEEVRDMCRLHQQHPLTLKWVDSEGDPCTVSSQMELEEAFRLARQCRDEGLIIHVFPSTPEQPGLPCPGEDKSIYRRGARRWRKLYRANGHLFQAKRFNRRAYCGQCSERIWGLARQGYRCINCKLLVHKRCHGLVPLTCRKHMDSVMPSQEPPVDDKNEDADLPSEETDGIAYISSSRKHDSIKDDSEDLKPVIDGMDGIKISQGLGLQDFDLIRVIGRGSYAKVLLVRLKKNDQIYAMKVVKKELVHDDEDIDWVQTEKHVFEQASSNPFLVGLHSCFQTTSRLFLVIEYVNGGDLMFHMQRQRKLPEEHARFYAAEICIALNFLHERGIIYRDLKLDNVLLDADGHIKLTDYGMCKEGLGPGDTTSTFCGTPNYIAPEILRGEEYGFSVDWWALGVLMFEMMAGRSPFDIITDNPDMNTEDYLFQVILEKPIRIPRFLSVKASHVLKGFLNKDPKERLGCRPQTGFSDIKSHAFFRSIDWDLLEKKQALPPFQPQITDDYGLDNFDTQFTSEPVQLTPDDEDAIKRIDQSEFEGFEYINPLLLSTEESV
Experiment: Inhibition of recombinant human full-length untagged PRKCZ expressed in baculovirus expression system at 25 uM using FRET-labeled Ser/Thr 07 peptide as substrate measured after 1 hr by Z'-lyte assay relative to control
Details: probe FRET-labeled Ser/Thr 07 peptide
Measured parameter: inhibition at 1 h, 25 µM

1) Nc1ncc2cc(-c3c(Cl)cccc3-c3cccnc3)c(N3C[C@@H]4[C@@H](N)[C@@H]4C3)nc2n1 ... 5%
2) Nc1ncc2cc(-c3c(Br)cccc3Br)c(N)nc2n1 ... 0%
3) CC(C)COc1cccc(Cl)c1-c1cc2cnc(N)nc2nc1N1C[C@@H]2[C@@H](N)[C@@H]2C1 ... -8%
